target: HLA-DRB1*04:01 (Homo sapiens, UniProt P01903+P01911, A100K/A169T/F76Y/I96L/K127E/L162R/M171V/N62H/P40V/Q125Y/R42H/S133A/S149N/S66Y/V115G/V209L/W38E); construct: EBV transformed homozygous cell lines were used as sources of MHC molecules; endogenous in cells; host or cells: EBV transformed homozygous cell lines; experiment: HLA class II peptide binding, inhibition of radiolabeled peptide binding to purified MHC; conditions: wild-type (unmodified Arg) 15-mer peptide; purified HLA-DRB1*04:01; read-out: DRB1*04:01 binding capacity, WT peptide (IC50 nM)
Ends that are not written are not given here.
metric.name: IC50

Look over these answered cases.
{"sequence.string": "GIAGAPGFPGPRGPP [Collagen 426 WT]", "recorded.value": "> 40000 nM"}
{"sequence.string": "QGPRGLPGTPGTDGP [Collagen 716 WT]", "recorded.value": "> 40000 nM"}
{"sequence.string": "KAGEKGLPGAPGLRG [Collagen 616 WT]", "recorded.value": "> 40000 nM"}
{"sequence.string": "GIVGLPGQRGERGFP [Collagen 981 WT]", "recorded.value": "2450 nM"}
{"sequence.string": "PGPAGPTGKQGDRGE [Collagen 1076 WT]", "recorded.value": "> 40000 nM"}
{"sequence.string": "DGLAGPKGAPGERGP [Collagen 521 WT]", "recorded.value": "36900 nM"}
{"sequence.string": "SAFAGLGPREKGPDP [Collagen 1221 WT]", "recorded.value": "> 40000 nM"}
{"sequence.string": "AGEPGERGLKGHRGF [Collagen 1121 WT]", "recorded.value": "> 40000 nM"}

Lab note: MIRLGAPQTLVLLTL [Collagen 1 WT] gave IC50 of 7130 nM

Lab note: TGPKGARGAQGPPGA [Collagen 881 WT] gave IC50 of > 40000 nM

Lab note: QAKQESTEYRRQVQS [Vimentin 311 WT] gave IC50 of 17000 nM
